All values here come from patent US20250034269A1.

Biological target: T1, human LTBR on cells (human, UniProt P36941 31-435)
T1 construct: also called recombinant human LTBR CHO cells; CHO-K1 cells overexpressing human LTBR
Assay: FACS CHO-huLTBR, 0.003 µg/ml

{"columns": ["binder", "MFI"],
 "data": [
  ["P1AE9459 (antibody, human IgG1, kappa, L234A L235A, V domains shown, human IgG1 PG LALA; from transgenic rabbit immunization) VH: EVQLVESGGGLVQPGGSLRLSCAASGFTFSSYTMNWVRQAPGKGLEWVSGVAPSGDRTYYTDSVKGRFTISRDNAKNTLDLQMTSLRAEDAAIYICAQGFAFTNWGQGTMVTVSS VL: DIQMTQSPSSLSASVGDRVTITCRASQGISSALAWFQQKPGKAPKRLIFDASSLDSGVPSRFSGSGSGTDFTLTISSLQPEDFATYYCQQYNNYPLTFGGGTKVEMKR", "1320 MFI"],
  ["P1AF0080 (antibody, human IgG1, kappa, L234A L235A, V domains shown, human IgG1 PG LALA; from transgenic rabbit immunization; also called LTBR (0080)) VH: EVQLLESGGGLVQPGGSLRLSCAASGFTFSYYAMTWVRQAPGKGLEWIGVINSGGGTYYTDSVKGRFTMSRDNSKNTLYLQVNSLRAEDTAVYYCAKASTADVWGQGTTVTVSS VL: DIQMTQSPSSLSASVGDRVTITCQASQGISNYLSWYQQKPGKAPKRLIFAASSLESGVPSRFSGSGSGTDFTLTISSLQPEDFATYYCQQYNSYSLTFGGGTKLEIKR", "5440 MFI"],
  ["P1AF0079 (antibody, human IgG1, kappa, L234A L235A, V domains shown, human IgG1 PG LALA; from transgenic rabbit immunization; also called LTBR (0079)) VH: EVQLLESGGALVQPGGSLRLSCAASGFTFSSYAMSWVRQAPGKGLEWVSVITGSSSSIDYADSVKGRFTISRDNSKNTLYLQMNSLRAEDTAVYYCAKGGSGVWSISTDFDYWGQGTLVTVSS VL: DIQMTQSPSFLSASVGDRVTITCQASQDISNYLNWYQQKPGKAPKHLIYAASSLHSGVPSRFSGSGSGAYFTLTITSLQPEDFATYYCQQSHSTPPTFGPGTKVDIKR", "1500 MFI"],
  ["P1AE9457 (antibody, human IgG1, kappa, L234A L235A, V domains shown, human IgG1 PG LALA; from transgenic rabbit immunization; also called LTBR (9457)) VH: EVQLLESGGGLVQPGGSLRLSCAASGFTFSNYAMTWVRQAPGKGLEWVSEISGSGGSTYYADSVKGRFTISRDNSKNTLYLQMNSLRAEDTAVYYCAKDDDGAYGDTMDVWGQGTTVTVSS VL: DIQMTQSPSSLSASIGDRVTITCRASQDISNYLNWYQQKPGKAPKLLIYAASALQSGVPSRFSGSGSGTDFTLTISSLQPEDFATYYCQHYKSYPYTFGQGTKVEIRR", "2440 MFI"],
  ["P1AE1873 (CBE11) (antibody, human IgG1, kappa, L234A L235A, V domains shown) VH: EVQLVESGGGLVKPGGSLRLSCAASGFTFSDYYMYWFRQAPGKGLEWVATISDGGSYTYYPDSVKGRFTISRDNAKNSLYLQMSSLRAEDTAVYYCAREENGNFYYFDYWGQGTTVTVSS VL: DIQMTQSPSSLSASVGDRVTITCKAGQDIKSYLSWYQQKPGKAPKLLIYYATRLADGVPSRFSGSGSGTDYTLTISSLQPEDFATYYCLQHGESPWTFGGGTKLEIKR", "2340 MFI"]
]}
